Target: KRAS Q61H (Homo sapiens, UniProt P01116, Q61H)
Construct: Recombinant human RAS protein (2 nM); aa1-188 KRAS WT
Sequence (P01116 1-188 isoform P01116-2 Q61H): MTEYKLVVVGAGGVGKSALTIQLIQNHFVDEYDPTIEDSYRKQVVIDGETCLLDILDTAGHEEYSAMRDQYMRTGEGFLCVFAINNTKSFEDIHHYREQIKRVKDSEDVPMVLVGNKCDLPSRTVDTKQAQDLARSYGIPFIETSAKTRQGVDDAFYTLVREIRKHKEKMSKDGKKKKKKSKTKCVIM
Assay: HTRF nucleotide exchange assay (NEA), KRAS Q61H
Could you please report measured IC50 for the items listed next?

What value of measured IC50 is listed for CC1COCCN(c2nc(OCC34CCCN3CCC4)nc3c(F)c(-c4cc(O)cc5ccccc45)ncc23)C1 (centres unmarked) [Example 19] ?
100 to 10000 nM

Quick check: IC50 of Oc1cc(-c2ncc3c(N4CCCOCC4)nc(OCC45CCCN4CCC5)nc3c2F)c2ccccc2c1 [Example 3] ?
10 to 100 nM

Can you look up the measured IC50 of Oc1cc(-c2ncc3c(N4CCCC5(CCOC5)C4)nc(OCC45CCCN4CCC5)nc3c2F)c2ccccc2c1 (centres unmarked) [Example 56] for me?
100 to 10000 nM

Requested read-out: IC50. Entry: C#Cc1c(F)ccc2cc(O)cc(-c3ncc4c(NCCCOC)nc(OC[C@@]56CCCN5C[C@H](F)C6)nc4c3F)c12 (relative stereo) [Example 85]
10 to 100 nM

Reported IC50 for C#Cc1c(F)ccc2cc(O)cc(-c3ncc4c(N5CCCCCC5)nc(OC[C@@]56CCCN5C[C@H](F)C6)nc4c3F)c12 (relative stereo) [Example 84] : what is it?
≤ 10 nM

Would you kindly share the measured IC50 for Oc1cc(-c2ncc3c(N4CC5CNCC5C4)nc(OCC45CCCN4CCC5)nc3c2F)c2ccccc2c1 (centres unmarked) [Example 1] ?
100 to 10000 nM

# lookup: IC50 of Oc1cc(-c2ncc3c(N4CCCSCC4)nc(OCC45CCCN4CCC5)nc3c2F)c2ccccc2c1 [Example 38]
10 to 100 nM

Name the recorded IC50 for Oc1cc(-c2ncc3c(N4CCC5(CCOC5)CC4)nc(OCC45CCCN4CCC5)nc3c2F)c2ccccc2c1 [Example 8] .
100 to 10000 nM

###

Biological target: KRAS G12S (Homo sapiens, UniProt P01116, G12S)
Construct: 4 nM KRAS; aa1-188 containing the G12V, G12C, G12A or G12S amino acid substitution
Sequence (P01116 1-188 isoform P01116-2 G12S): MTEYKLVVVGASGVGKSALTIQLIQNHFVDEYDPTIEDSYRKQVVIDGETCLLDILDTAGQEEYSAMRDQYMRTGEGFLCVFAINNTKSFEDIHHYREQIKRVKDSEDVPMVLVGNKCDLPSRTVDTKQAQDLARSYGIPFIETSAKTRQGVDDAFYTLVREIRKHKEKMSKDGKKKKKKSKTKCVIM
Test: HTRF nucleotide exchange assay (NEA), KRAS G12S
Format: biochemical
assay.metric: IC50

For the compound shown here, O=C1CN(c2nc(OCC34CCCN3CCC4)nc3c(F)c(-c4cc(O)cc5ccccc45)ncc23)CCN1 [Example 10] , give the reported IC50.
100 to 10000 nM

Given the entry [O-][S+]1CCCN(c2nc(OCC34CCCN3CCC4)nc3c(F)c(-c4cc(O)cc5ccccc45)ncc23)CC1 (stereo not shown) [Example 90] , report its measured IC50.
100 to 10000 nM

Name the reported IC50 value associated with the compound C#Cc1c(F)ccc2cc(O)cc(-c3ncc4c(N5CCCNC(=O)C5)nc(OC[C@@]56CCCN5C[C@H](F)C6)nc4c3F)c12 (relative stereo) [Example 88]
≤ 10 nM

Entry CSCCCN(C)c1nc(OCC23CCCN2CCC3)nc2c(F)c(-c3cc(O)cc4ccccc34)ncc12 [Example 27] has what IC50?
100 to 10000 nM

May I ask what IC50 has been recorded for N#CC1CCN(c2nc(OCC34CCCN3CCC4)nc3c(F)c(-c4cc(O)cc5ccccc45)ncc23)CC1 [Example 65] ?
100 to 10000 nM

Could you tell me which IC50 is on file for C#Cc1c(F)ccc2cc(O)cc(-c3ncc4c(NCCCOC)nc(OC[C@@]56CCCN5C[C@H](F)C6)nc4c3F)c12 (relative stereo) [Example 85] ?
10 to 100 nM

Quick one: IC50 for COC(C)CCNc1nc(OCC23CCCN2CCC3)nc2c(F)c(-c3cc(O)cc4ccccc34)ncc12 (stereo not shown) [Example 32] ?
100 to 10000 nM

###

Molecular target: KRAS G12A (Homo sapiens, UniProt P01116, G12A)
Construct: 4 nM KRAS; aa1-188 containing the G12V, G12C, G12A or G12S amino acid substitution
Sequence (P01116 1-188 isoform P01116-2 G12A): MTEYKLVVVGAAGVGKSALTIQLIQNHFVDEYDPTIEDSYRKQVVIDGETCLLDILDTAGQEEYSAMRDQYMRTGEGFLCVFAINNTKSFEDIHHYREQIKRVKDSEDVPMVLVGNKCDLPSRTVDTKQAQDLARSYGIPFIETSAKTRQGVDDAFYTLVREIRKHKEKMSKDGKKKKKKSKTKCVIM
Test: HTRF nucleotide exchange assay (NEA), KRAS G12A
Method: The capacity of compounds to bind KRAS G12D, other KRAS mutants and wildtype RAS isoforms was quantified using a HTRF nucleotide exchange assay. […] Following 30-minute incubation at room temperature, time-resolved fluorescence was measured on a PerkinElmer Envision plate reader. […] Data was analysed using a four-parameter logistic model to calculate IC50 values, with at least two independent replicates were performed for each compound.
Kindly state IC50 for each of the entries shown.

What value of measured IC50 is listed for COC(C)CCNc1nc(OCC23CCCN2CCC3)nc2c(F)c(-c3cc(O)cc4ccccc34)ncc12 (stereo not drawn) ?
100 to 10000 nM

Request the reported IC50 associated with "Oc1cc(-c2ncc3c(N4CC5CCC(C5)C4)nc(OCC45CCCN4CCC5)nc3c2F)c2ccccc2c1"
10 to 100 nM

Look up IC50: C#Cc1c(F)ccc2cc(O)cc(-c3ncc4c(NCCCOC)nc(OC[C@@]56CCCN5C[C@H](F)C6)nc4c3F)c12 (relative stereo)
≤ 10 nM

What value of IC50 has been reported for the following compound? C#Cc1c(F)ccc2cc(O)cc(-c3ncc4c(N5CCCCCC5)nc(OC[C@@]56CCCN5C[C@H](F)C6)nc4c3F)c12 (relative stereo)
≤ 10 nM

Need IC50, item Oc1cc(-c2ncc3c(N4CCCC5(CCOC5)C4)nc(OCC45CCCN4CCC5)nc3c2F)c2ccccc2c1 (stereo not drawn)
100 to 10000 nM

What does the record list as IC50 for "Oc1cc(-c2ncc3c(N4CCCCCC4)nc(OCC45CCCN4CCC5)nc3c2F)c2ccccc2c1" ?
10 to 100 nM

Quick one: IC50 for COCC1CCN(c2nc(OCC34CCCN3CCC4)nc3c(F)c(-c4cc(O)cc5ccccc45)ncc23)C1 (stereo not drawn) ?
100 to 10000 nM

Item under review: "Oc1cc(-c2ncc3c(NC4CCCCCC4)nc(OCC45CCCN4CCC5)nc3c2F)c2ccccc2c1" . Reported IC50?
100 to 10000 nM

Name the reported IC50 value associated with the compound "O=C1CN(c2nc(OCC34CCCN3CCC4)nc3c(F)c(-c4cc(O)cc5ccccc45)ncc23)CCCN1"
100 to 10000 nM

IC50 lookup needed for CC1CN(c2nc(OCC34CCCN3CCC4)nc3c(F)c(-c4cc(O)cc5ccccc45)ncc23)CCCO1 (stereo not drawn) , thanks.
10 to 100 nM

Entry under review: [O-][S+]1CCCN(c2nc(OCC34CCCN3CCC4)nc3c(F)c(-c4cc(O)cc5ccccc45)ncc23)CC1 (stereo not drawn) . Reported IC50?
10 to 100 nM

What does the data say about its IC50? Entry: COCC(C)CNc1nc(OCC23CCCN2CCC3)nc2c(F)c(-c3cc(O)cc4ccccc34)ncc12 (stereo not drawn)
100 to 10000 nM

GET /values?readout=IC50&item= "Oc1cc(-c2ncc3c(N4CCCCC4)nc(OCC45CCCN4CCC5)nc3c2F)c2ccccc2c1"
10 to 100 nM

Suppose we examine the compound "Oc1cc(-c2ncc3c(N4CCCC5(COC5)C4)nc(OCC45CCCN4CCC5)nc3c2F)c2ccccc2c1" ; what IC50 value has been reported?
10 to 100 nM

Look up IC50 for this compound: "Oc1cc(-c2ncc3c(N4CCCOCC4)nc(OCC45CCCN4CCC5)nc3c2F)c2ccccc2c1"
≤ 10 nM

###

Target: KRAS G12V (Homo sapiens, UniProt P01116, G12V)
Construct: 4 nM KRAS; aa1-188 containing the G12V, G12C, G12A or G12S amino acid substitution
Sequence (P01116 1-188 isoform P01116-2 G12V): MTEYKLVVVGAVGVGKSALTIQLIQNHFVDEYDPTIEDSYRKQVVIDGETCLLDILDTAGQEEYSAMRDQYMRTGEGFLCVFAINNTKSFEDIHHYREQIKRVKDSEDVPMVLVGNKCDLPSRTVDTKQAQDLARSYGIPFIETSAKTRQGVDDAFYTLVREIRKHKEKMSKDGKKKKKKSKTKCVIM
Experiment: HTRF nucleotide exchange assay (NEA), KRAS G12V
Assay type: biochemical
Hi there, I'd appreciate the recorded IC50 for every entry that follows.

Report IC50 for CC1CN(c2nc(OCC34CCCN3CCC4)nc3c(F)c(-c4cc(O)cc5ccccc45)ncc23)CCCO1 (stereo not drawn) please.
0.01 to 0.1 µM

# input molecule: Oc1cc(-c2ncc3c(N4CCCC(O)CC4)nc(OCC45CCCN4CCC5)nc3c2F)c2ccccc2c1 (stereo not drawn) ; wanted: its IC50
0.01 to 0.1 µM

GET /values?readout=IC50&item= C#Cc1c(F)ccc2cc(O)cc(-c3ncc4c(NCCCOC)nc(OC[C@@]56CCCN5C[C@H](F)C6)nc4c3F)c12 (relative stereo)
≤ 0.01 µM

Value lookup for IC50; key = "CN(C)CC1(COc2nc(N3CCCOCC3)c3cnc(-c4cc(O)cc5ccccc45)c(F)c3n2)CC1"
0.01 to 0.1 µM

What IC50 value was documented for this molecule, CC1COCCN(c2nc(OCC34CCCN3CCC4)nc3c(F)c(-c4cc(O)cc5ccccc45)ncc23)C1 (stereo not drawn) ?
0.01 to 0.1 µM

Any idea what its IC50 is? The molecule is C#Cc1c(F)ccc2cc(O)cc(-c3ncc4c(N5CCCCCC5)nc(OC[C@@]56CCCN5C[C@H](F)C6)nc4c3F)c12 (relative stereo)
≤ 0.01 µM

I'd like to know its IC50. The molecule in question is CC1CN(c2nc(OCC34CCCN3CCC4)nc3c(F)c(-c4cc(O)cc5ccccc45)ncc23)CCO1 (stereo not drawn)
0.1 to 10 µM

Entry "COCCCNc1nc(OCC23CCCN2CCC3)nc2c(F)c(-c3cc(O)cc4ccccc34)ncc12" : reported IC50 = ?
0.1 to 10 µM

Endpoint output: IC50 of "Oc1cc(-c2ncc3c(N4CCOCC4)nc(OCC45CCCN4CCC5)nc3c2F)c2ccccc2c1" . Value?
0.1 to 10 µM

Please report the recorded IC50 for "O=C1CCN(c2nc(OCC34CCCN3CCC4)nc3c(F)c(-c4cc(O)cc5ccccc45)ncc23)CCN1" .
0.1 to 10 µM

Reported IC50, molecule "Oc1cc(-c2ncc3c(N4CC5CCC(C5)C4)nc(OCC45CCCN4CCC5)nc3c2F)c2ccccc2c1" : ____
0.01 to 0.1 µM

Data request, read-out IC50, for "CN1CCN(c2nc(OCC34CCCN3CCC4)nc3c(F)c(-c4cc(O)cc5ccccc45)ncc23)CCC1=O"
0.1 to 10 µM

Consider the molecule "O=C1NCc2ccc(Nc3nc(OCC45CCCN4CCC5)nc4c(F)c(-c5cc(O)cc6ccccc56)ncc34)cc21" and give its measured IC50.
0.01 to 0.1 µM

Could you tell me which IC50 is on file for "Oc1cc(-c2ncc3c(N4CCCC5(COC5)C4)nc(OCC45CCCN4CCC5)nc3c2F)c2ccccc2c1" ?
0.01 to 0.1 µM

What value of IC50 has been recorded for this entry: "O=C1CC2(CCN(c3nc(OCC45CCCN4CCC5)nc4c(F)c(-c5cc(O)cc6ccccc56)ncc34)CC2)CN1"
0.01 to 0.1 µM

Data provenance is patent US20240279241A1.
